Tested on: Karpas299 NHL
run_description: In vitro cytotoxicity, cell proliferation assay (CellTiter-Glo, 96 h)
Format: cell-based
condition_description: Homo sapiens, KARPAS-299, auristatin free drug
pIC50: −log10 of the molar value. Where a SMILES comes first, the peptide text is derived from it. [ ]: non-standard residue; d: D form. The star is where a group is joined. Dolaproine = CO[C@@H]([C@@H]1CCCN1)[C@@H](C)C(=O)O; Dil = CC[C@H](C)[C@H](NC)[C@@H](CC(=O)O)OC; Met(O2) = CS(=O)(=O)CC[C@H](N)C(=O)O; X1 = C[C@@H](N*)[C@@H](O)c1ccccc1; Phe(ol) = N[C@H](CO)Cc1ccccc1; X4 = CN1C(=O)OC(C)(C)C1C(=O)*; Dap = NC[C@H](N)C(=O)O
test_readout: pIC50

>  <compound>
CC[C@H](C)[C@@H]([C@@H](CC(=O)N1CCC[C@H]1[C@H](OC)[C@@H](C)C(=O)N[C@H](CO)Cc1ccccc1)OC)N(C)C(=O)[C@@H](NC(=O)C1N(C)C(=O)OC1(C)C)C(C)C (stereo partly shown) [Example 43] (X4-V[Dil][Dolaproine][Phe(ol)])

>  <operator>
=

>  <meas_value>
8.23

$$$$
>  <compound>
CC[C@H](C)[C@@H]([C@@H](CC(=O)N1CCC[C@H]1[C@H](OC)[C@@H](C)C(=O)N[C@H](CO)Cc1ccccc1)OC)N(C)C(=O)[C@@H](NC(=O)[C@@H](N)CCS(C)(=O)=O)C(C)C [Example 47] (H-[Met(O2)]V[Dil][Dolaproine][Phe(ol)])

>  <operator>
<

>  <meas_value>
6.00

$$$$
>  <compound>
CC[C@H](C)[C@@H]([C@@H](CC(=O)N1CCC[C@H]1[C@H](OC)[C@@H](C)C(=O)N[C@H](CO)Cc1ccccc1)OC)N(C)C(=O)[C@@H](NC(=O)[C@@H](N)CNC(C)=O)C(C)C [Example 46] (H-[Dap](Ac)V[Dil][Dolaproine][Phe(ol)])

>  <operator>
=

>  <meas_value>
6.58

$$$$
>  <compound>
CC[C@H](C)[C@@H]([C@@H](CC(=O)N1CCC[C@H]1[C@H](OC)[C@@H](C)C(=O)N[C@H](C)[C@@H](O)c1ccccc1)OC)N(C)C(=O)[C@@H](NC(=O)[C@H](N)CO)C(C)C [Example 26] (H-[dS]V[Dil][Dolaproine]-X1)

>  <operator>
=

>  <meas_value>
8.30

$$$$

---

Test system: Karpas299 NHL
run_description: In vitro cytotoxicity, cell proliferation assay (CellTiter-Glo, 96 h)
Assay type: cell-based
condition_description: Homo sapiens, KARPAS-299, auristatin free drug
Where a SMILES comes first, the peptide text is derived from it. [ ]: non-standard residue; d: D form. The star is where a group is joined. Dolaproine = CO[C@@H]([C@@H]1CCCN1)[C@@H](C)C(=O)O; Dil = CC[C@H](C)[C@H](NC)[C@@H](CC(=O)O)OC; X10 = C[C@H]1OC(=O)N[C@@H]1C(=O)*; Phe(ol) = N[C@H](CO)Cc1ccccc1; X5 = O=C1N[C@H](C(=O)*)CO1; X7 = O=C1NC(C(=O)*)CCO1
Overview of reported IC50 across a group of compounds:

>  <compound>
CC[C@H](C)[C@@H]([C@@H](CC(=O)N1CCC[C@H]1[C@H](OC)[C@@H](C)C(=O)N[C@H](CO)Cc1ccccc1)OC)N(C)C(=O)[C@@H](NC(=O)[C@@H](N)CO)C(C)C [Example 23] (H-SV[Dil][Dolaproine][Phe(ol)])

>  <IC50>
66 nM

$$$$
>  <compound>
CC[C@H](C)[C@@H]([C@@H](CC(=O)N1CCC[C@H]1[C@H](OC)[C@@H](C)C(=O)N[C@H](CO)Cc1ccccc1)OC)N(C)C(=O)[C@@H](NC(=O)[C@@H]1COC(=O)N1)C(C)C [Example 40] (X5-V[Dil][Dolaproine][Phe(ol)])

>  <IC50>
60 nM

$$$$
>  <compound>
CC[C@H](C)[C@@H]([C@@H](CC(=O)N1CCC[C@H]1[C@H](OC)[C@@H](C)C(=O)NC(CCO)Cc1ccccc1)OC)N(C)C(=O)[C@@H](NC(=O)[C@H](CO)N(C)C)C(C)C (some centres unmarked)

>  <IC50>
6 nM

$$$$
>  <compound>
CC[C@H](C)[C@@H]([C@@H](CC(=O)N1CCC[C@H]1[C@H](OC)[C@@H](C)C(=O)N[C@H](CO)Cc1ccccc1)OC)N(C)C(=O)[C@@H](NC(=O)C1CCOC(=O)N1)C(C)C (some centres unmarked) [Example 41] (X7-V[Dil][Dolaproine][Phe(ol)])

>  <IC50>
62 nM

$$$$
>  <compound>
CC[C@H](C)[C@@H]([C@@H](CC(=O)N1CCC[C@H]1[C@H](OC)[C@@H](C)C(=O)NC(Cc1ccccc1)c1ncco1)OC)N(C)C(=O)[C@@H](NC(=O)[C@H](CO)N(C)C)C(C)C (some centres unmarked)

>  <IC50>
0.9 nM

$$$$
>  <compound>
CC[C@H](C)[C@@H]([C@@H](CC(=O)N1CCC[C@H]1[C@H](OC)[C@@H](C)C(=O)N[C@H](CO)Cc1ccccc1)OC)N(C)C(=O)[C@@H](NC(=O)[C@H]1NC(=O)O[C@@H]1C)C(C)C [Example 42] (X10-V[Dil][Dolaproine][Phe(ol)])

>  <IC50>
64 nM

$$$$
>  <compound>
CC[C@H](C)[C@@H]([C@@H](CC(=O)N1CCC[C@H]1[C@H](OC)[C@@H](C)C(=O)N[C@H](CO)Cc1ccccc1)OC)N(C)C(=O)[C@@H](NC(=O)[C@@H](N)[C@@H](C)O)C(C)C [Example 25] (H-TV[Dil][Dolaproine][Phe(ol)])

>  <IC50>
62 nM

$$$$
>  <compound>
CC[C@H](C)[C@@H]([C@@H](CC(=O)N1CCC[C@H]1[C@H](OC)[C@@H](C)C(=O)N[C@H](C)[C@@H](O)c1ccccc1)OC)N(C)C(=O)[C@@H](NC(=O)[C@@H](CO)N(C)C)C(C)C

>  <IC50>
1 nM

$$$$

---

run_description: LogD, miniaturized 1-octanol/pH 7.4 buffer shake flask method, LC/MS/MS
Format: physicochemical
Where a SMILES comes first, the peptide text is derived from it. [ ]: non-standard residue; d: D form. The star is where a group is joined. Dolaproine = CO[C@@H]([C@@H]1CCCN1)[C@@H](C)C(=O)O; Dil = CC[C@H](C)[C@H](NC)[C@@H](CC(=O)O)OC; Tyrosinol = OC[C@H](Cc1ccc(O)cc1)N*; Val(3-OH) = CC(C)(O)[C@H](N)C(=O)O; Phe(ol) = N[C@H](CO)Cc1ccccc1; X3 = CN1C(=O)OC[C@@H]1C(=O)*; X2 = CN(C)[C@@H](CO)C(=O)*

>  <compound>
CC[C@H](C)[C@@H]([C@@H](CC(=O)N1CCC[C@H]1[C@H](OC)[C@@H](C)C(=O)N[C@H](CO)Cc1ccccc1)OC)N(C)C(=O)[C@@H](NC(=O)[C@H]1COC(=O)N1C)C(C)C [Example 45] (X3-V[Dil][Dolaproine][Phe(ol)])

>  <logD>
1.5

$$$$
>  <compound>
CC[C@H](C)[C@@H]([C@@H](CC(=O)N1CCC[C@H]1[C@H](OC)[C@@H](C)C(=O)N[C@H](C)[C@@H](O)c1ccccc1)OC)N(C)C(=O)[C@@H](NC(=O)C[C@@H](N)CO)C(C)C [Example 32]

>  <logD>
0.3

$$$$
>  <compound>
CC[C@H](C)[C@@H]([C@@H](CC(=O)N1CCC[C@H]1[C@H](OC)[C@@H](C)C(=O)N[C@H](CO)Cc1ccc(O)cc1)OC)N(C)C(=O)[C@@H](NC(=O)[C@@H](N)C(C)(C)O)C(C)C [Example 30] (H-[Val(3-OH)]V[Dil][Dolaproine]-Tyrosinol)

>  <logD>
1.2

$$$$
>  <compound>
CC[C@H](C)[C@@H]([C@@H](CC(=O)N1CCC[C@H]1[C@H](OC)[C@@H](C)C(=O)N[C@H](CO)Cc1ccccc1)OC)N(C)C(=O)[C@@H](NC(=O)[C@H](CO)N(C)C)C(C)C [Example 8] (X2-V[Dil][Dolaproine][Phe(ol)])

>  <logD>
1.6

$$$$

---

Test system: L540cy HL
run_description: In vitro cytotoxicity, cell proliferation assay (CellTiter-Glo, 96 h)
Type: cell-based
condition_description: auristatin free drug
Where a SMILES comes first, the peptide text is derived from it. [ ]: non-standard residue; d: D form. The star is where a group is joined. Dolaproine = CO[C@@H]([C@@H]1CCCN1)[C@@H](C)C(=O)O; Dil = CC[C@H](C)[C@H](NC)[C@@H](CC(=O)O)OC; Met(O2) = CS(=O)(=O)CC[C@H](N)C(=O)O; Val(3-OH) = CC(C)(O)[C@H](N)C(=O)O; Phe(ol) = N[C@H](CO)Cc1ccccc1; X6 = CN(C)[C@@H](CCO)C(=O)*
test_readout: IC50

>  <compound>
CC[C@H](C)[C@@H]([C@@H](CC(=O)N1CCC[C@H]1[C@H](OC)[C@@H](C)C(=O)N[C@H](CO)Cc1ccccc1)OC)N(C)C(=O)[C@@H](NC(=O)[C@@H](N)C(C)(C)O)C(C)C [Example 29] (H-[Val(3-OH)]V[Dil][Dolaproine][Phe(ol)])

>  <meas_value>
58 nM

$$$$
>  <compound>
CC[C@H](C)[C@@H]([C@@H](CC(=O)N1CCC[C@H]1[C@H](OC)[C@@H](C)C(=O)N[C@H](CO)Cc1ccccc1)OC)N(C)C(=O)[C@@H](NC(=O)[C@@H](N)CCS(C)(=O)=O)C(C)C [Example 47] (H-[Met(O2)]V[Dil][Dolaproine][Phe(ol)])

>  <meas_value>
> 1000 nM

$$$$
>  <compound>
CC[C@H](C)[C@@H]([C@@H](CC(=O)N1CCC[C@H]1[C@H](OC)[C@@H](C)C(=O)NCCc1ccccc1)OC)N(C)C(=O)[C@@H](NC(=O)[C@@H]1COC(=O)N1C)C(C)C [Example 38]

>  <meas_value>
512 nM

$$$$
>  <compound>
CC[C@H](C)[C@@H]([C@@H](CC(=O)N1CCC[C@H]1[C@H](OC)[C@@H](C)C(=O)N[C@H](CO)Cc1ccccc1)OC)N(C)C(=O)[C@@H](NC(=O)[C@H](CCO)N(C)C)C(C)C [Example 9] (X6-V[Dil][Dolaproine][Phe(ol)])

>  <meas_value>
4 nM

$$$$
